Exercise: state measured PBM binding z-score for each of the sequences provided.
- Test system: PPARa:RXRa (NR concentration 270 nM, RXRa partner concentration 90 nM)
- Method summary: PBM binding z-score (relative to random genomic background probes); higher = stronger binding; sequences stand for … in GC…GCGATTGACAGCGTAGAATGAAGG
Give bare numbers.

Below, 5 sequences whose answers are already recorded.
> print(dat)
                       sequence.chain                       experimental.target   parameter.measured  meas.value
1  GCTGCTAGGTCAATTGATGGTCAGCTAAAGCTCG  PPARa:RXRa (NR concentration 270 nM, RXRa partner concentration 90 nM)  PBM binding z-score        2.93
2  CCTACTGGGCCAAGGTCATCGATCAGTCAAAGCA  PPARa:RXRa (NR concentration 270 nM, RXRa partner concentration 90 nM)  PBM binding z-score        4.23
3  CCTCGGAGGACAACAGGAGGTCAGACCTGCCAGA  PPARa:RXRa (NR concentration 270 nM, RXRa partner concentration 90 nM)  PBM binding z-score        1.96
4  CGAACTAGGTCAGAAGAGGACAGTGAAGGATGAT  PPARa:RXRa (NR concentration 270 nM, RXRa partner concentration 90 nM)  PBM binding z-score        3.14
5  CCGACTGGAGCATAAGGTTACCATAAGCCAGCCC  PPARa:RXRa (NR concentration 270 nM, RXRa partner concentration 90 nM)  PBM binding z-score       0.887

stdin: Query for PPARa:RXRa (NR concentration 270 nM, RXRa partner concentration 90 nM): what PBM binding z-score does the record show for `CGAACTAGGTCATCCAGCACAGTGAATACATTGA` ?
stdout: 4.78
